target: human P2X7 receptor (Homo sapiens, UniProt Q99572, R270H/Y155H); experiment: Evaluation of human P2X7 receptor inhibitory activity (Yo-Pro uptake, BzATP stimulation, FLIPR TETRA); assay type: cell-based; conditions: 1321N1 cells stably expressing human P2X7 receptor; BzATP stimulation, Yo-Pro uptake; read-out: IC50 (antagonistic activity for the human P2X7 receptor), class symbol
Entries and their IC50

// solved cases for IC50 follow
| smi | subject-of-test | IC50 |
| --- | --- | --- |
| COc1cn(Cc2ccccc2)c(Nc2cc(C)cc(C)c2C)nc1=O | human P2X7 receptor (Homo sapiens, UniProt Q99572, R270H/Y155H) | 0.01 to 0.1 µM |
| COC(=O)c1ccc(C)c(Nc2nc(=O)c(OC)cn2Cc2ccccc2)c1 | human P2X7 receptor (Homo sapiens, UniProt Q99572, R270H/Y155H) | 0.1 to 0.5 µM |
| COCc1cccc(Nc2nc(=O)c(OC)cn2Cc2ccc(F)c(Cl)c2)c1C | human P2X7 receptor (Homo sapiens, UniProt Q99572, R270H/Y155H) | 0.01 to 0.1 µM |
| COc1cn(Cc2ccc(Cl)c(F)c2)c(Nc2cccc(Cl)c2C)nc1=O | human P2X7 receptor (Homo sapiens, UniProt Q99572, R270H/Y155H) | 0.01 to 0.1 µM |
| Cc1c(Cl)cccc1Nc1nc(=O)c(F)cn1Cc1ccc(F)cc1 | human P2X7 receptor (Homo sapiens, UniProt Q99572, R270H/Y155H) | < 0.01 µM |

Which IC50 reading was recorded for the molecule CCc1ccccc1CNc1nc(=O)c(OC)cn1Cc1ccccc1 ?
0.1 to 0.5 µM

Now consider COc1cn(Cc2cccc(F)c2)c(Nc2cc(C)c(Cl)cc2C)nc1=O .
< 0.01 µM

Would you mind doing CCc1cc(Cl)ccc1Nc1nc(=O)c(OC)cn1Cc1ccccc1 as well?
0.01 to 0.1 µM

---

molecular target: human P2X7 receptor (Homo sapiens, UniProt Q99572, R270H/Y155H); experiment: Evaluation of human P2X7 receptor inhibitory activity (Yo-Pro uptake, BzATP stimulation, FLIPR TETRA); format: cell-based; conditions: 1321N1 cells stably expressing human P2X7 receptor; BzATP stimulation, Yo-Pro uptake; read-out: IC50 (antagonistic activity for the human P2X7 receptor), class symbol
pIC50: −log10 of the molar value.
The entries below are paired with their reported pIC50.

Please review the following examples before continuing.
| molecule | subject-of-test | pIC50 |
| --- | --- | --- |
| COc1cn(Cc2cccc(Cl)c2)c(Nc2cc3sc(C)nc3cc2C)nc1=O | human P2X7 receptor (Homo sapiens, UniProt Q99572, R270H/Y155H) | 7.00 to 8.00 |
| COc1cn(Cc2cc(F)c(F)c(F)c2)c(Nc2cccc(C)c2C)nc1=O | human P2X7 receptor (Homo sapiens, UniProt Q99572, R270H/Y155H) | > 8.00 |
| CNC(=O)Cc1cn(Cc2ccccc2)c(Nc2cccc(Cl)c2C)nc1=O | human P2X7 receptor (Homo sapiens, UniProt Q99572, R270H/Y155H) | 6.30 to 7.00 |
| COc1cn(Cc2ccccc2)c(Nc2cccc3[nH]c(-c4ccccc4)cc23)nc1=O | human P2X7 receptor (Homo sapiens, UniProt Q99572, R270H/Y155H) | 6.00 to 6.30 |
| COc1cn(Cc2ccccc2)c(Nc2cc(Cl)c(Cl)cc2C)nc1=O [Compound I-0448] | human P2X7 receptor (Homo sapiens, UniProt Q99572, R270H/Y155H) | 7.00 to 8.00 |
| COc1cn(Cc2ccc(F)c(Cl)c2)c(Nc2cc(-c3nc4ncccc4o3)ccc2C)nc1=O | human P2X7 receptor (Homo sapiens, UniProt Q99572, R270H/Y155H) | 6.30 to 7.00 |
| COc1cc(C)c(Nc2nc(=O)c(F)cn2Cc2ccccc2)cc1OC | human P2X7 receptor (Homo sapiens, UniProt Q99572, R270H/Y155H) | 7.00 to 8.00 |

What measured pIC50 goes with COc1cc(C)cc(Nc2nc(=O)c(OC)cn2Cc2cc(F)cc(F)c2)c1C ?
> 8.00
